Source of measurements: patent US20240116985A1

- assayed-system: full-length beta-Catenin (Uniprot ID P35222) (Homo sapiens, UniProt P35222)
- Construct: 10 nM full-length beta-Catenin (Uniprot ID P35222)
- Sequence (P35222 1-781): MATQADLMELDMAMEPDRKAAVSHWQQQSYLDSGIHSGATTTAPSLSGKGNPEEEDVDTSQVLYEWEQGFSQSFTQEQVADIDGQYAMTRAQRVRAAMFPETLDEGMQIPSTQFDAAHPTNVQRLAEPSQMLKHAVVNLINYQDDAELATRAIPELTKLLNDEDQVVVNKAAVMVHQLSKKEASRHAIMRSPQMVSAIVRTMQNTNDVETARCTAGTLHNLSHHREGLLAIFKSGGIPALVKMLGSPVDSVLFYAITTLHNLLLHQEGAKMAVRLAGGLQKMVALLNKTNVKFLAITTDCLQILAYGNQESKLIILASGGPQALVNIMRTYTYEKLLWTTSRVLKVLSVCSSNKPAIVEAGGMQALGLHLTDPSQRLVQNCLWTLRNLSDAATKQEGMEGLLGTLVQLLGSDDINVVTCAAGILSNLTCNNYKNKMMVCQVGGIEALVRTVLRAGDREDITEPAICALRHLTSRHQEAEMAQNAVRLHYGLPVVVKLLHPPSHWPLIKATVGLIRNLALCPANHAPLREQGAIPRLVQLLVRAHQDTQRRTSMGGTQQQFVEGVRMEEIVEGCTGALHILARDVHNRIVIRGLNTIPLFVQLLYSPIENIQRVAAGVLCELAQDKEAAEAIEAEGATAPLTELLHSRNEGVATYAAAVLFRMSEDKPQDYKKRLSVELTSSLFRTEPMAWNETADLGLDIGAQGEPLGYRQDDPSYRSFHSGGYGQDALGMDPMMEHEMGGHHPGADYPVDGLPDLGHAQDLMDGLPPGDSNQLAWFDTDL
- method-summary: Fluorescence polarization IC50 (beta-catenin / 5FAM-TCF4 10-53 competition)
- Assay type: binding
- conditions-used: fluorescence polarization; read-out: beta-Catenin FP IC50
measurement-type: pIC50
Note on units: pIC50 is unitless, being -log10 of a concentration expressed in mol/L.

>>> readout_value("CC(=O)N1CCC[C@H]1C(=O)N[C@@H](CC(=O)O)C(=O)N[C@@H](CC(C)(C)C)C(=O)N[C@]1(C)CCCCCCCOC(=O)N2CC[C@@](C(=O)N[C@@H](Cc3ccsc3)C(=O)N[C@@H](Cc3csc4ccccc34)C(=O)N[C@@H](CCC(N)=O)C(N)=O)(C2)NC(=O)[C@H](CC(C)C)NC(=O)[C@H](Cc2ccccc2)NC(=O)[C@H](C)NC(=O)[C@H](C)NC(=O)[C@H](CC(=O)O)NC(=O)[C@H](CC(=O)O)NC1=O")
6.27

Pending compound:
Which pIC50 value is on record for CC(=O)N1CCC[C@]12CC=CCCCC1(CCCC=CCCCOC(=O)N3CC[C@@](C(=O)N[C@@H](Cc4ccccc4)C(=O)N[C@@H](Cc4csc5ccccc45)C(=O)N[C@@H](CCC(N)=O)C(N)=O)(C3)NC(=O)[C@H](CC(C)C)NC(=O)[C@H](Cc3ccccc3)NC(=O)[C@H](C)NC(=O)[C@H](CCCCNC(C)C)NC(=O)[C@H](CCC(N)=O)NC(=O)[C@H](CC(=O)O)NC1=O)NC(=O)[C@H](Cc1ccc(O)cc1)NC(=O)[C@H](CC(N)=O)NC2=O (some centres unmarked) ?
5.63
